Target: STING (Homo sapiens, UniProt Q86WV6, G230A/H232R/R293Q/R71H)
Sequence (Q86WV6 whole entry R71H/G230A/H232R/R293Q): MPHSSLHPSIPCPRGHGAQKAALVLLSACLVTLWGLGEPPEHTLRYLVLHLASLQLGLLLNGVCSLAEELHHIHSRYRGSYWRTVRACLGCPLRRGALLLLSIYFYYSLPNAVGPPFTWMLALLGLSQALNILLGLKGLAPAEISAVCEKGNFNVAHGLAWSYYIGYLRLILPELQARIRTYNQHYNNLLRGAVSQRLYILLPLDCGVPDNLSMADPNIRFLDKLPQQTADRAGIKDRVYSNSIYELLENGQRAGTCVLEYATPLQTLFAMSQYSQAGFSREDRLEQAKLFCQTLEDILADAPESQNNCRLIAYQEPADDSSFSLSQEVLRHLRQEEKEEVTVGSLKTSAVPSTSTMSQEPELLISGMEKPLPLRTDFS
Assay: Reporter gene expression assay in THP1-Dual cells (IRF pathway Lucia luciferase, 2',3'-cGAMP stimulation)
Conditions: 10 min preincubation, 5 μM 2',3'-cGAMP, 20 hr, IRF reporter QUANTI-Luc, read-out: THP-1 (HAQ) Activity
measured-property: IC50

O=C(Nc1ccc2c(c1)OCC(=O)N2Cc1cc(F)cc(C(F)(F)F)c1)Nc1ccc2cc[nH]c2c1 [Example 112]	≤ 1 µM
O=C(Nc1ccc2c(c1)SCC(=O)N2Cc1c(F)ccc(O)c1Cl)Nc1ccc2cc[nH]c2c1 [Example 125]	≤ 1 µM
NC(=O)c1cc2c(cc1NC(=O)Nc1ccc3cc[nH]c3c1)OCC(=O)N2Cc1ccccc1 [Example 165]	1 to 10 µM
NCC1COc2ccc(NC(=O)Nc3ccc4cc[nH]c4c3)cc2N1Cc1ccccc1 (stereo not drawn) [Example 82]	> 10 µM
O=C(Nc1ccc(F)cc1)Nc1ccc2c(c1)N(Cc1cccnc1)C(=O)CS2 [Example 16]	> 10 µM
O=C(Nc1ccc2c(c1)N(C(C(=O)NC1CC1)c1ccccc1)CCO2)Nc1ccc2cc[nH]c2c1 (stereo not drawn) [Example 190]	1 to 10 µM
O=C(Nc1ccc2c(c1)OCC(=O)N2Cc1cc(F)cc(Cl)c1)Nc1ccc2cc[nH]c2c1 [Example 102]	≤ 1 µM
O=C(Nc1ccc2c(c1)OCC(=O)N2Cc1ccccc1)N1CCc2ccccc2C1 [Example 141]	1 to 10 µM
O=C1CSc2ccc(COCc3ccc(F)cc3)cc2N1Cc1c(F)cccc1Cl [Example 42]	1 to 10 µM
CN1CCN(Cc2ccccc2)c2cc(NC(=O)Nc3ccc4cc[nH]c4c3)ccc21 [Example 73]	1 to 10 µM

In plain terms, N#CC1COc2cc(NC(=O)Nc3ccc4cc[nH]c4c3)ccc2N1Cc1ccccc1 (stereo not drawn) [Example 186] has a documented IC50 of 1 to 10 µM

In plain terms, O=C(Nc1ccc2c(c1)OCC(=O)N2Cc1c(F)cccc1F)Nc1ccc2cc[nH]c2c1 [Example 96] has a documented IC50 of > 10 µM

In plain terms, C[C@H]1c2ccc(NC(=O)Nc3ccc(F)cc3)cc2N(Cc2ccccc2)C(=O)N1C [Example 38] has a documented IC50 of > 10 µM

In plain terms, O=C(Nc1ccc2c(c1)OCCN2c1ccccc1)Nc1ccc2cc[nH]c2c1 [Example 181] has a documented IC50 of ≤ 1 µM

In plain terms, O=C(Nc1ccc2c(c1)OCC(=O)N2Cc1ccncn1)Nc1ccc2cc[nH]c2c1 [Example 160] has a documented IC50 of 1 to 10 µM

In plain terms, O=C(Nc1ccc2c(c1)OCC(=O)N2Cc1cccc(F)c1F)Nc1ccc2cc[nH]c2c1 [Example 95] has a documented IC50 of ≤ 1 µM

In plain terms, CC1Sc2ccc(NC(=O)Nc3ccccc3)cc2N(Cc2ccccc2)C1=O (stereo not drawn) [Example 32] has a documented IC50 of 1 to 10 µM

In plain terms, CN(C(=O)Nc1ccc2c(c1)N(Cc1ccccc1)C(=O)CS2)c1ccc2cc[nH]c2c1 [Example 59] has a documented IC50 of 1 to 10 µM

In plain terms, O=C(Nc1ccc2c(c1)OCC(=O)N2CCc1ccccc1Cl)Nc1ccc2cc[nH]c2c1 [Example 110] has a documented IC50 of 1 to 10 µM

In plain terms, O=C(Nc1ccc2c(c1)N(Cc1ccccc1)C(=O)CS2)c1ccc2cc[nH]c2c1 [Example 55] has a documented IC50 of 1 to 10 µM

---

In this section, each of the molecules is paired with its reported IC50.
Molecular target: STING (Homo sapiens, UniProt Q86WV6, G230A/H232R/R293Q/R71H)
Experiment: Reporter gene expression assay in THP1-Dual cells (IRF pathway Lucia luciferase, 2',3'-cGAMP stimulation)
Conditions: 10 min preincubation, 5 μM 2',3'-cGAMP, 20 hr, IRF reporter QUANTI-Luc, read-out: THP-1 (HAQ) Activity

O=C(Nc1ccc2c(c1)OCC(=O)N2Cc1ccc(C(=O)O)cn1)Nc1ccc2cc[nH]c2c1	> 10000 nM
O=C(Nc1ccc2c(c1)OCC(=O)N2Cc1ccncc1)Nc1ccc2cc[nH]c2c1	1000 to 10000 nM
O=C(Nc1ccc2c(c1)OCC(=O)N2Cc1ccccc1)Nc1ccc2cc[nH]c2c1	≤ 1000 nM
CNC(=O)C(c1ccccc1)N1CCOc2ccc(NC(=O)Nc3ccc4cc[nH]c4c3)cc21 (stereo not shown)	1000 to 10000 nM
N#CCN1C(=O)COc2cc(NC(=O)Nc3ccc4cc[nH]c4c3)ccc21	1000 to 10000 nM

In plain terms, CN1Cc2ccc(NC(=O)Nc3ccc(F)cc3)cc2N(Cc2ccccc2)C1=O has a documented IC50 of 1000 to 10000 nM

In plain terms, O=C(Nc1ccc2c(c1)OCC(=O)N2Cc1ccc2nonc2c1)Nc1ccc2cc[nH]c2c1 has a documented IC50 of ≤ 1000 nM

In plain terms, O=C(Nc1ccc2c(c1)OCC(=O)N2Cc1cccc(CO)c1)Nc1ccc2cc[nH]c2c1 has a documented IC50 of 1000 to 10000 nM

In plain terms, Cc1cc(CN2C(=O)CSc3ccc(NC(=O)Nc4ccc5cc[nH]c5c4)cc32)ccn1 has a documented IC50 of 1000 to 10000 nM

In plain terms, O=C(Nc1ccc2c(c1)NCC2)Nc1ccc2c(c1)OCC(=O)N2Cc1ccccc1 has a documented IC50 of 1000 to 10000 nM

---

Target: STING (Homo sapiens, UniProt Q86WV6, G230A/H232R/R293Q/R71H)
Test: Reporter gene expression assay in THP1-Dual cells (IRF pathway Lucia luciferase, 2',3'-cGAMP stimulation)
Settings: 10 min preincubation, 5 μM 2',3'-cGAMP, 20 hr, IRF reporter QUANTI-Luc, read-out: THP-1 (HAQ) Activity
Text: Reporter Gene Expression Assay in THP-1 Cells THP1-Dual™ cells (Invivogen) were derived from the human THP-1 monocyte cell line by stable integration of two inducible reporter constructs. […] After 20 hr of stimulation the supernatant was removed and the IRF pathway reporter protein was readily measured in the cell culture supernatant using QUANTI-Luc™ (Invivogen), a luciferase detection reagent on a Spectramax i3X luminometer. […]
pIC50: −log10 of the molar value.
measured-property: pIC50

O=C(Nc1ccc2c(c1)N(Cc1ccccc1)CCO2)Nc1ccc2cc[nH]c2c1 [Example 56]	5.00 to 6.00
COc1ccc(F)c(CN2C(=O)CSc3cc(NC(=O)Nc4ccc5cc[nH]c5c4)ccc32)c1Cl [Example 124]	≥ 6.00

Now look at this one.
In plain terms, O=C(Nc1ccc2c(c1)OCC(=O)N2CCOc1ccccc1Cl)Nc1ccc2cc[nH]c2c1 [Example 100] has a documented pIC50 of 5.00 to 6.00

---

Target: STING (Homo sapiens, UniProt Q86WV6, G230A/H232R/R293Q/R71H)
Test: Reporter gene expression assay in THP1-Dual cells (IRF pathway Lucia luciferase, 2',3'-cGAMP stimulation)
Details: 10 min preincubation, 5 μM 2',3'-cGAMP, 20 hr, IRF reporter QUANTI-Luc, read-out: THP-1 (HAQ) Activity
pIC50: −log10 of the molar value.
In this section, each of the molecules is paired with its reported pIC50.

Completed entries (count: 2):
CS(=O)(=O)c1cc(Cl)ccc1CN1C(=O)COc2cc(NC(=O)Nc3ccc4cc[nH]c4c3)ccc21	5.00 to 6.00
O=C(Nc1ccc2c(c1)OCC(=O)N2Cc1ccccc1)NC1CCc2ccccc2C1 (stereo not shown)	5.00 to 6.00

Now look at this one.
STING (Homo sapiens, UniProt Q86WV6, G230A/H232R/R293Q/R71H) data for O=C(Nc1ccc2c(c1)OCC(=O)N2Cc1cccc(O)c1)Nc1ccc2cc[nH]c2c1 ; its pIC50: 5.00 to 6.00

---

In this section, each of the compounds is paired with its reported IC50.
Molecular target: STING (Homo sapiens, UniProt Q86WV6, G230A/H232R/R293Q/R71H)
Experiment: Reporter gene expression assay in THP1-Dual cells (IRF pathway Lucia luciferase, 2',3'-cGAMP stimulation)
Conditions: 10 min preincubation, 5 μM 2',3'-cGAMP, 20 hr, IRF reporter QUANTI-Luc, read-out: THP-1 (HAQ) Activity
From the text: Reporter Gene Expression Assay in THP-1 Cells THP1-Dual™ cells (Invivogen) were derived from the human THP-1 monocyte cell line by stable integration of two inducible reporter constructs. […] After 20 hr of stimulation the supernatant was removed and the IRF pathway reporter protein was readily measured in the cell culture supernatant using QUANTI-Luc™ (Invivogen), a luciferase detection reagent on a Spectramax i3X luminometer. […]

Completed entries (count: 3):
O=C(Nc1ccc2c(c1)OCC(=O)N2Cc1ccccc1)Nc1c[nH]nc1-c1ccc(Cl)cc1 [Example 131]	> 10 µM
O=C(Nc1ccc2c(c1)N(Cc1ccccc1)C(=O)CS2)Nc1ccc2nc[nH]c2c1 [Example 30]	1 to 10 µM
NC(=O)c1cc2c(cc1NC(=O)Nc1ccc3cc[nH]c3c1)N(Cc1ccccc1)CCO2 [Example 179]	1 to 10 µM

In plain terms, O=C(Nc1ccc2c(c1)OCC(=O)N2Cc1ccccc1C(=O)O)Nc1ccc2cc[nH]c2c1 [Example 143] has a documented IC50 of > 10 µM

// provenance: patent US20230124361A1
